protocol.description: qHTS assay to identify small molecule inhibitors of chordoma cells - UCH-1 (AID 1259355); also: nearly all actives have a fitted effect of over 55% in size
study.conditions: UCH-1 chordoma viability, CellTiter-Glo, 48 h, combination, with auranofin plus four topoisomerase inhibitors; series mostly up to 46.1 µM
Inconclusive results are not listed. Active and inactive are the calls of the source. Calls follow the shape of the dose curve; as a rule, active = well fitted cell-killing curve with a large enough effect; inconclusive = small, poorly fitted or top-dose-only effect, or effect the other way; inactive = no such curve, though single readings can be large or run the other way.

molecule: Cc1cc(O)c2ccccc2c1O
outcome: inactive
//
molecule: COC(=O)C1=C(C)NC(C)=C(C(=O)OCC(C)C)C1c1ccccc1[N+](=O)[O-] (stereo unspecified)
outcome: inactive
//
molecule: COc1ccc(/C=C/C(=O)Nc2ccccc2C(=O)O)cc1OC
outcome: inactive
//
molecule: COc1cc(NC(C)CCCN)c2ncccc2c1 (stereo unspecified)
outcome: inactive
//
molecule: CCCOC(=O)c1ccc(O)cc1
outcome: inactive
//
molecule: O=C(O)[C@H](O)[C@@H](O)[C@H](O)[C@H](O)CO
outcome: inactive

----------
Tested on: 7G8
protocol.description: qHTS profiling for inhibitors of Plasmodium falciparum proliferation (AID 504749); also: nearly all actives have a fitted effect of over 60% in size
study.conditions: P. falciparum in erythrocytes, SYBR Green DNA, 72 h; series mostly up to 28.7 µM
Results filed as inconclusive are left out. Activity calls are given as the source filed them. Calls follow the shape of the dose curve; as a rule, active = well fitted inhibition curve with a large enough effect; inconclusive = small, poorly fitted or top-dose-only effect; inactive = flat fitted curve, though single readings scatter. Where a SMILES comes first, the peptide text is derived from it. [ ]: non-standard residue; d: D form. pGlu = O=C1CC[C@@H](C(=O)O)N1; Thz = O=C(O)[C@@H]1CSCN1
Outcomes: active, inactive

compound: C#C[C@]1(O)CC[C@H]2[C@@H]3CCc4cc(O)ccc4[C@H]3CC[C@@]21C
tested.target: 7G8
label: inactive
//
compound: Nc1c(CC(=O)O)cccc1C(=O)c1ccc(Br)cc1
tested.target: 7G8
label: inactive
//
compound: CC1(C)C[C@@H]1C(=O)N/C(=C\CCCCSC[C@H](N)C(=O)O)C(=O)O
tested.target: 7G8
label: inactive
//
compound: CC(C(=O)O)c1ccc2c(c1)[nH]c1ccc(Cl)cc12 (stereo not given)
tested.target: 7G8
label: inactive
//
compound: N=c1ccn2c(n1)O[C@H]1[C@H](O)[C@@H](CO)O[C@H]12
tested.target: 7G8
label: inactive
//
compound: CN(C)c1ccc(C(=C2C=CC(=[N+](C)C)C=C2)c2ccccc2)cc1
tested.target: 7G8
label: active
//
compound: CCCCCCCCCCCCCCCCCC(=O)O
tested.target: 7G8
label: inactive
//
compound: O=C1CC[C@@H](C(=O)N2CSC[C@H]2C(=O)O)N1 ([pGlu]-[Thz]-OH)
tested.target: 7G8
label: inactive
//
compound: c1ccc2sc(SN3CCOCC3)nc2c1
tested.target: 7G8
label: active
//
compound: CC(=O)[C@]1(O)Cc2c(O)c3c(c(O)c2[C@@H](O[C@H]2C[C@H](N)[C@H](O)[C@H](C)O2)C1)C(=O)c1c(O)cccc1C3=O
tested.target: 7G8
label: active

----------
tested.target: Single-stranded DNA cytosine deaminase (Homo sapiens) (UniProt Q9GZX7)
Sequence (Q9GZX7 whole entry, looked up): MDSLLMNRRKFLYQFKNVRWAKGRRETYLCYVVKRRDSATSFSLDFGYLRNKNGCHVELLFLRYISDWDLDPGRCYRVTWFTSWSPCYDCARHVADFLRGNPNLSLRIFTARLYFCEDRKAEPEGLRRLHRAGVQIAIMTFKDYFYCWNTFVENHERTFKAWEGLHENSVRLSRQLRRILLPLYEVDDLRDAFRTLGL
protocol.description: Validation qHTS assay for inhibitors of Activation Induced Cytidine Deaminase (AID): AID signal (AID 1347429)
study.conditions: Recombinant AID, FRET ssDNA deamination with UDG, fluorescence; series mostly up to 115 µM
The source made the active and inactive calls. Calls come from the whole dose curve; as a rule, active = well fitted inhibition curve with a large enough effect; inconclusive = small, poorly fitted or top-dose-only effect; inactive = no such curve, though single readings can be large or run the other way.
Outcomes: 1 (active), 0 (inactive)

compound: CCCCCCCCc1ccc(-c2ccc(C(=O)O)cc2)cc1
label: 0
//
compound: CNc1ncnc2c1ncn2[C@@H]1O[C@H](CO)[C@@H](O)[C@H]1O
label: 0
//
compound: CCCCCC(O)c1cccc(OCc2ccc3ccccc3n2)c1 (stereo unspecified)
label: 0
//
compound: CN1C2CC(OC(=O)[C@H](CO)c3ccccc3)CC1C1OC12 (stereo partly specified)
label: 0
//
compound: C#CCN1C(C)=C(C(=O)OC)C(c2cccc([N+](=O)[O-])c2)C(C(=O)OCC)=C1C (stereo unspecified)
label: 0
//
compound: O=C(O)CC1CC(c2ccccc2)=NO1 (stereo unspecified)
label: 0
//
compound: O=C1NC(=O)/C(=C/c2ccc(-c3ccc(F)cc3O)o2)S1
label: 0
//
compound: O=C(O)[C@@H]1C[C@@H](C(=O)O)N1
label: 0
//
compound: O=c1[nH]c2cc(C(F)(F)F)ccc2n1-c1cc(C(F)(F)F)ccc1O
label: 0
//
compound: O=C(O)CC1CCCc2ccccc2C1O (stereo unspecified)
label: 0
//
compound: CN1[C@@H](CC(=O)c2ccccc2)CCC[C@H]1C[C@H](O)c1ccccc1
label: 0
//
compound: Cc1cc(NC(=O)Nc2ccc3c(ccn3C)c2)sn1
label: 0
//
compound: NCCCCCCCCCCN
label: 0
//
compound: Oc1cc2c(cc1O)CN(C(=S)NCCc1ccc(Cl)cc1)CCC2
label: 0
//
compound: N#C/C(=C\c1ccc(-c2cc(Cl)ccc2Cl)o1)C(=O)Nc1cccc2ncccc12
label: 0
//
compound: OC[C@H]1O[C@@H](n2cnc3c(NC4CCCCC4)ncnc32)[C@H](O)[C@@H]1O
label: 0
//
compound: NCC1OC(O[C@H]2[C@H](O)[C@@H](OC3C(O)C(N)CC(N)C3OC3OC(CO)C(O)C(O)C3N)O[C@@H]2CO)C(N)C(O)C1O (stereo partly specified)
label: 0
//
compound: C[N+](C)(CCCCCC[N+](C)(C)CCCN1C(=O)c2cccc3cccc(c23)C1=O)CCCN1C(=O)c2cccc3cccc(c23)C1=O
label: 1
//
compound: CN=c1nc(-c2ccccc2)n(-c2ccccc2)s1
label: 0
//
compound: O=C(c1cc(O)c(O)c([N+](=O)[O-])c1)c1ccccc1F
label: 0
//
compound: NC(=S)c1ccc[n+]([C@@H]2O[C@@H](COP(=O)([O-])OP(=O)(O)OC[C@H]3O[C@@H](n4cnc5c(N)ncnc54)[C@H](OP(=O)(O)O)[C@@H]3O)C(O)C2O)c1 (stereo partly specified)
label: 0
//
compound: O=C1C(SCCO)=C(SCCO)C(=O)c2ccccc21
label: 1
//
compound: CC(=O)SCC[N+](C)(C)C
label: 0
//
compound: CN1CCc2ccccc2Cc2[nH]c3ccccc3c2CC1
label: 0
//
compound: Cc1ccc(S(=O)(=O)/C=C/C#N)cc1
label: 0
//
compound: OCC1O[C@H]([S-])[C@H](O)[C@@H](O)[C@@H]1O.[Au+] (stereo partly specified)
label: 1
//
compound: CCCCCCCCCCCCCCCC(=O)OC(CC(=O)O)C[N+](C)(C)C (stereo unspecified)
label: 0
//
compound: CC1CN(S(=O)(=O)c2cccc3cnccc23)CCN1 (stereo unspecified)
label: 0
//
compound: Oc1cc(O)cc(/C=C/c2ccc(O)c(O)c2)c1
label: 0
//
compound: CC(C)ON([C@@H](C(=O)NO)C(C)C)S(=O)(=O)c1ccc(-c2ccccc2)cc1
label: 0
//
compound: CN1CCC[C@H]1c1cccnc1
label: 0
//
compound: NC(=S)NCCC[C@H](N)C(=O)O
label: 0
//
compound: CCCN(CC1CC1)c1nc(C)nc(Nc2c(Cl)cc(Cl)cc2Cl)c1Cl
label: 0
//
compound: O=C(O)c1cc([N+](=O)[O-])ccc1NCCCc1ccccc1
label: 0
//
compound: CCCCCCCCCCCCCCCCCC(=O)NCC(COP(=O)([O-])OCC[N+](C)(C)C)OCC (stereo unspecified)
label: 0
//
compound: N[C@@H](CC(=O)O)C(=O)O
label: 0
//
compound: N#C/C(=C\c1ccc(O)c(O)c1)C(=O)c1ccc(O)c(O)c1
label: 0
//
compound: NS(=O)(=O)C#Cc1ccccc1
label: 0
//
compound: Brc1c(Br)c(Br)c2n[nH]nc2c1Br
label: 0
//
compound: Oc1ccc(C2CNCc3sccc32)cc1O (stereo unspecified)
label: 0
//
compound: Cn1cc(C2=C(c3ccc(Cl)cc3Cl)C(=O)NC2=O)c2ccccc21
label: 0
//
compound: CC(=O)/C=C1\C(=O)N(C)c2ccccc21
label: 0
//
compound: CCCCN1CCC(n2c(=O)[nH]c3ccccc32)CC1
label: 0
//
compound: Cc1ccc(O)c(N=Nc2ccccc2)n1
label: 0
//
compound: CC1(C)CCC=[N+]1[O-]
label: 0
//
compound: CN(C)c1ccc(/C=C2\C(=O)Nc3ccccc32)cc1
label: 0
